Test system: RAW 264.7 cells
ASSAY: Cell viability (CellTiter 96 AQueous One) of LPS-challenged RAW 264.7 cells
Format: cell-based, mouse
Set-up: key: NS=not significant; a “+” sign=anti-inflammatory or increased cell numbers; a “−” sign=cell toxicity or pro-inflammatory
EXPERIMENTAL PARAMETERS: 10 μM
MEASURED PARAMETER: Viability

Recorded Viability, per entry:
MOLECULE	TARGET UNDER TEST	VAL
CC(N1Cc2c(N)cccc2C1=O)C12CC3CC(CC(C3)C1)C2 (stereo not shown) [Compound 81]	RAW 264.7 cells	NS
C[C@H]1[C@H](N2Cc3c(N)cccc3C2=O)C[C@@H]2C[C@H]1C2(C)C [Compound 91]	RAW 264.7 cells	+
O=C1c2ccccc2CN1c1nc2ccc(C(F)(F)F)cc2s1 [Compound 62]	RAW 264.7 cells	NS
CC1(C)[C@@H]2CC[C@H](CN3C(=O)C4CC=CCC4C3=O)[C@H]1C2 (stereo partly shown) [Compound 112]	RAW 264.7 cells	−
O=C1c2cccc([N+](=O)[O-])c2CN1C12CC3CC(CC1C3)C2 [Compound 84]	RAW 264.7 cells	NS
CC(N1Cc2c(cccc2[N+](=O)[O-])C1=O)C12CC3CC(CC(C3)C1)C2 (stereo not shown) [Compound 80]	RAW 264.7 cells	−
CC1(C)[C@@H]2CC[C@H](CN3Cc4c(cccc4[N+](=O)[O-])C3=O)[C@H]1C2 [Compound 103]	RAW 264.7 cells	NS
CC1(C)[C@@H]2CC[C@H](CN3C(=O)C4C5C=CC(C5)C4C3=O)[C@H]1C2 (stereo partly shown) [Compound 114]	RAW 264.7 cells	−
c1ccc2c(c1)CN=C2C1=NCc2ccccc21 [Compound 106]	RAW 264.7 cells	+
Nc1ccc2c(c1)C(=O)N(C1CC=CNC1=O)C2 (stereo not shown) [Compound 44]	RAW 264.7 cells	NS

Sure, the documented Viability for C[C@H]1[C@H](N2C(=O)C3C4C=CC(C4)C3C2=O)C[C@@H]2C[C@H]1C2(C)C (stereo partly shown) [Compound 119] is −

The molecule identified as Nc1cccc2c1CN(C13CC4CC(CC1C4)C3)C2=O [Compound 85] registered its Viability at NS

// sample O=C1c2ccccc2CN1c1ccc(C(F)(F)F)cc1 [Compound 68] , its Viability was NS

Note to self: Viability recorded for CC1(C)S[C@@H]2[C@H](N3C(=O)c4ccccc4C3=O)C(=O)N2[C@H]1C(=O)O [Compound 64] was NS

In plain terms, O=C1CCC(N2C(=O)c3ccncc3C2=O)C(=O)N1 (stereo not shown) [Compound 58] has a documented Viability of NS

Notebook: O=C1CCC(N2Cc3ccccc3C2=O)C(=O)N1CN1C(=S)c2ccccc2C1=S (stereo not shown) [Compound 51] , Viability read as NS

The measured Viability associated with C[C@H]1[C@H](N2C(=O)C3CC=CCC3C2=O)C[C@@H]2C[C@H]1C2(C)C (stereo partly shown) [Compound 118] reads −

Looking up CC(N1Cc2ccccc2C1=S)C12CC3CC(CC(C3)C1)C2 (stereo not shown) [Compound 74] , I found its Viability recorded as NS

// sample C[C@H]1[C@H](N2C(=O)C3C4C=CC(C4)C3C2=O)C[C@@H]2C[C@H]1C2(C)C (stereo partly shown) [Compound 120] , its Viability was −

This collection of values is drawn from patent US11440880B2.
